# subjectOfTest: WT PfPKG (Plasmodium falciparum)
# Construct: recombinant full length wild type (WT) PfPKG; His6 (N); host or cells: E. coli BL21
# Sequence (Q8I719 whole entry): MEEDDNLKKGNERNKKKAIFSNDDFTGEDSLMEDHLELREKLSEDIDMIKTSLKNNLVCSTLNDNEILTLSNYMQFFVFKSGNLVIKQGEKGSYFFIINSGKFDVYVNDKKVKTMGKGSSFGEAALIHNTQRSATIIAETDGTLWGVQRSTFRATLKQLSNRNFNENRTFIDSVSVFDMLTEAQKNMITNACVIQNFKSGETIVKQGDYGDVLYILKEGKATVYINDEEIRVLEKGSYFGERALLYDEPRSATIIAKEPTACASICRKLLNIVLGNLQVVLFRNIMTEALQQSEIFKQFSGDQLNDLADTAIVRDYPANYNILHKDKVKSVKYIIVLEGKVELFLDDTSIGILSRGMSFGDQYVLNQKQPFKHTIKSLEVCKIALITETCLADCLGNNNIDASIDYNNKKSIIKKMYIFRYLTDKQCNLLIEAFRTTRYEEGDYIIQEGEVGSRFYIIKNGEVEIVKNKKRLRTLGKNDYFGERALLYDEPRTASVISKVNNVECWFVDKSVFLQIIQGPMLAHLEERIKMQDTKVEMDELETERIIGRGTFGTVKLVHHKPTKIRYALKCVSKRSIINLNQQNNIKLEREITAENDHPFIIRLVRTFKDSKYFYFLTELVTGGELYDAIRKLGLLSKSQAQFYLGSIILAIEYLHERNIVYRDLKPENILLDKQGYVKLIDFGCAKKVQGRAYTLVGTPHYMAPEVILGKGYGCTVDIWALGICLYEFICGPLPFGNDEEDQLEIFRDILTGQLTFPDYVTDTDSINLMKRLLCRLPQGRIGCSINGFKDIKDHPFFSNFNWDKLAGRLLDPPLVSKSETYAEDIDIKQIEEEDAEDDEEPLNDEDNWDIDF
# testDetails: Kinase Glo enzymatic assay, recombinant WT PfPKG
# Assay type: biochemical, P. falciparum
# runConditions: WT PfPKG (μM), recombinant WT PfPKG
Catalogue of IC50 readings, one per entry.

| compoundSmiles | subjectOfTest | IC50 (µM) |
| --- | --- | --- |
| CNCCOc1cnc(-c2ccoc2C)c(-c2ccc3cnccc3c2)c1 | WT PfPKG (Plasmodium falciparum) | 0.007 |
| Nc1nccc(-c2c(-c3ccc(F)cc3)ncn2C2CCNCC2)n1 | WT PfPKG (Plasmodium falciparum) | 0.066 |
| CNS(=O)(=O)c1cccc(Nc2ccnc(Nc3cccc(S(=O)(=O)NC)c3)n2)c1 | WT PfPKG (Plasmodium falciparum) | 0.07 |
